The measurements presented in this section are drawn from ChEMBL document CHEMBL1147854.

Please provide measured inhibition at 50 µg/mL for the entries that follow.
Tested on: Aspergillus niger
ASSAY_EXPLANATION: Antifungal activity against Aspergillus niger at 50 ug/ml by agar plate method
Type: functional
Numbers only, in %.

Illustrative cases are given below, each with its answer.
# GIVEN_SMILES, OBS_VALUE
measured = [
    ("O=C1c2ccccc2C(=O)N1Cc1nc2ccccc2c(=O)n1Nc1nc(-c2ccccc2)nc2ccccc12", 75),
    ("O=C(NCc1nc2ccccc2c(=O)n1Nc1nc(-c2ccccc2)nc2ccccc12)c1ccccc1", 75),
    ("O=c1c2ccccc2nc(-c2ccccc2)n1Nc1nc(-c2ccccc2)nc2ccccc12", 60),
]

Switching to the query record.
inhibition at 50 µg/mL lookup needed for O=c1c2ccccc2nc(/C=C\c2ccccc2)n1Nc1nc(-c2ccccc2)nc2ccccc12 , thanks.
90

---

Test system: Staphylococcus aureus
ASSAY_EXPLANATION: Antibacterial activity against Staphylococcus aureus at 10 ug/ml after 24 hrs by disk diffusion method
Type: functional
CONDITION_SET: read-out: IZ
VALUE_TYPE: zone of inhibition at 10 µg/mL

Illustrative cases are given below, each with its answer.
# GIVEN_SMILES, VALUE_TYPE, OBS_VALUE
data = [
    ("O=C(NCc1nc2ccccc2c(=O)n1Nc1nc(-c2ccccc2)nc2ccccc12)c1ccccc1", "zone of inhibition at 10 µg/mL", "10 mm"),
    ("O=c1c2ccccc2nc(-c2ccccc2)n1Nc1nc(-c2ccccc2)nc2ccccc12", "zone of inhibition at 10 µg/mL", "6 mm"),
    ("O=c1c2ccccc2nc(/C=C\\c2ccccc2)n1Nc1nc(-c2ccccc2)nc2ccccc12", "zone of inhibition at 10 µg/mL", "> 14 mm"),
]

Switching to the query record.
zone of inhibition at 10 µg/mL lookup needed for O=C1c2ccccc2C(=O)N1Cc1nc2ccccc2c(=O)n1Nc1nc(-c2ccccc2)nc2ccccc12 , thanks.
6 mm

---

Please provide measured inhibition at 20 µg/mL for the entries that follow.
System: Aspergillus flavus
ASSAY_EXPLANATION: Antifungal activity against Aspergillus flavus at 20 ug/ml by agar plate method
Format: functional
Numbers only, in %.

# GIVEN_SMILES, VALUE_TYPE, RESULT_UNIT, OBS_VALUE
data = [
    ("O=C1c2ccccc2C(=O)N1Cc1nc2ccccc2c(=O)n1Nc1nc(-c2ccccc2)nc2ccccc12", "inhibition at 20 µg/mL", "%", 86.7),
    ("O=c1c2ccccc2nc(-c2ccccc2)n1Nc1nc(-c2ccccc2)nc2ccccc12", "inhibition at 20 µg/mL", "%", 83.3),
    ("O=C(NCc1nc2ccccc2c(=O)n1Nc1nc(-c2ccccc2)nc2ccccc12)c1ccccc1", "inhibition at 20 µg/mL", "%", 66.6),
]

inhibition at 20 µg/mL lookup needed for O=c1c2ccccc2nc(/C=C\c2ccccc2)n1Nc1nc(-c2ccccc2)nc2ccccc12 , thanks.
80

---

Please provide measured inhibition at 20 µg/mL for the entries that follow.
Test system: Aspergillus niger
ASSAY_EXPLANATION: Antifungal activity against Aspergillus niger at 20 ug/ml by agar plate method
Format: functional
Numbers only, in %.

# GIVEN_SMILES, inhibition at 20 µg/mL (%)
records = [
    ("O=c1c2ccccc2nc(-c2ccccc2)n1Nc1nc(-c2ccccc2)nc2ccccc12", 40),
    ("O=C(NCc1nc2ccccc2c(=O)n1Nc1nc(-c2ccccc2)nc2ccccc12)c1ccccc1", 60),
]

List inhibition at 20 µg/mL for every entry below, keeping the order given.
1. O=C1c2ccccc2C(=O)N1Cc1nc2ccccc2c(=O)n1Nc1nc(-c2ccccc2)nc2ccccc12
2. O=c1c2ccccc2nc(/C=C\c2ccccc2)n1Nc1nc(-c2ccccc2)nc2ccccc12

1: 70; 2: 70
